Entry source: patent US20040204474A1

- assay_explanation: solubility of carvedilol in adjuvants and solvents with lipophilic character
- Format: physicochemical
- settings: oil or lipid, in many cases; read-out: solubility in glycerol oleyloleate, medium chain triglycerides and natural oils

| molecule | solubility |
| --- | --- |
| COc1ccccc1OCCNCC(O)COc1cccc2[nH]c3ccccc3c12 (stereo not shown) | < 10 mg/mL |

====

- assay_explanation: solubility of carvedilol in adjuvants and solvents with lipophilic character
- Assay type: physicochemical
- settings: oleic acid, 37 °C, oil or lipid, at 37° C.; read-out: solubility in oleic acid
measured_parameter: solubility

| compound | measured_parameter | observed_value |
| --- | --- | --- |
| COc1ccccc1OCCNCC(O)COc1cccc2[nH]c3ccccc3c12 (stereo not shown) | solubility | > 100 mg/mL |
